- TARGET_SYSTEM: T1, His-tagged PD-L1 protein (human, UniProt Q9NZQ7 19-238)
- T1 construct: also called His-tagged antigen PD-L1 protein; human PD-L1; not shown: His tag
- T1 sequence (Q9NZQ7 19-238 limits assumed): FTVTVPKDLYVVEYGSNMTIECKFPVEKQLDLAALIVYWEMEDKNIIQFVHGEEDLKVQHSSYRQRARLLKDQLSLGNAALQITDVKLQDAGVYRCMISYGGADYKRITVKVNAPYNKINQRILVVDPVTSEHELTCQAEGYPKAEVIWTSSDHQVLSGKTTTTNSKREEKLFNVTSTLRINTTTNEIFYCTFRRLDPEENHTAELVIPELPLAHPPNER
- ASSAY_REMARKS: SPR, Biacore T200, full-length IgG, 1:1 interaction model
OBSERVABLE: pKd
Units for pKd: none; it is -log10 of a concentration expressed in mol/L.

Query block: Find the recorded pKd belonging to AS01814 (humanized full-length IgG) (antibody, V domains shown, Full-length IgG expressed in HEK293 cells, protein A purified) VH: QVQLVQSGSELKKPGASVKVSCKASGYTFTSYSINWVRQAPGKGLEWVAYFYVGNGYTDYNEKFKGRVTITADESTSTAYMELSSLRSEDTAVYYCARGGLPYYFDYWGQGTLVTVSS VL: DIQMTQSPSTLSASVGDRVTITCKTSQDVNTAVAWYQQKPGKAPKLLLYWASTRHTGIPARFSGSGSGTEFTLTISSLQSEDFAVYYCQQHYNTPLTFGGGTKLEIKR and report it.
Result block: 9.34

Query block: Find the recorded pKd belonging to AS01790 (humanized full-length IgG) (antibody, V domains shown, Full-length IgG expressed in HEK293 cells, protein A purified) VH: EVQLVQSGAEVKKPGESLKISCKGSGYSFTSYSINWVRQMPGKGLEWMGYFYVGNGYTDYNEKFKGRVTMTRNTSISTAYMELSSLRSEDTAVYYCARGGLPYYFDYWGQGTLVTVSS VL: DIQMTQSPSTLSASVGDRVTITCKTSQDVNTAVAWYQQKPGKAPKLLIYWASTRHTGVPSRFSGSGSGTEFTLTISSLQPEDFATYYCQQHYNTPLTFGGGTKLEIKR and report it.
Result block: 9.11

Query block: Find the recorded pKd belonging to AS02013 (humanized full-length IgG) (antibody, V domains shown, Full-length IgG expressed in HEK293 cells, protein A purified) VH: EVQLVQSGAEVKKPGESLKISCKGSGYSFTSYSINWVRQAPGKGLEWMGYFYVGNGYTDYNEKFKGRVTMTRNTSISTAYMELSSLRSEDTAVYYCARGGLPYYFDYWGQGTLVTVSS VL: DIQLTQSPSSLSASVGDRVTITCKTSQDVNTAVAWYQQKPGQAPRLLIYWASTRHTGVPSRFSGSGSGTDFTLTISSLQPEDFATYYCQQHYNTPLTFGGGTKLEIKR and report it.
Result block: 9.12

Query block: Find the recorded pKd belonging to murine-human chimeric antibody derived from murine PDL1#10 (Chimeric IgG) (antibody, V domains shown, also called mouse-human chimeric antibody) VH: EVQLQQSGAELVRPGSSVKMSCKTSGYTFTSYSINWVKQRPGQGLEWIAYFYVGNGYTDYNEKFKGKATLTSDTSSSTAYMQLSSLTSEDSAIYFCARGGLPYYFDYWGQGTTLTVSS VL: DIVMTQSHKFMSTSVGDRVSITCKTSQDVNTAVAWYQQKPGHSPKLLFYWASTRHTGVPDRFTGGGSGTDYTLTISSVQAEDLALYYCQQHYNTPLTFGAGTRLELKR and report it.
Result block: 9.00

Source: patent US20200190197A1
